target.under.test: wild type PI3Kα protein (Homo sapiens)
Construct: purchased Millipore
Sequence (P42336 whole entry): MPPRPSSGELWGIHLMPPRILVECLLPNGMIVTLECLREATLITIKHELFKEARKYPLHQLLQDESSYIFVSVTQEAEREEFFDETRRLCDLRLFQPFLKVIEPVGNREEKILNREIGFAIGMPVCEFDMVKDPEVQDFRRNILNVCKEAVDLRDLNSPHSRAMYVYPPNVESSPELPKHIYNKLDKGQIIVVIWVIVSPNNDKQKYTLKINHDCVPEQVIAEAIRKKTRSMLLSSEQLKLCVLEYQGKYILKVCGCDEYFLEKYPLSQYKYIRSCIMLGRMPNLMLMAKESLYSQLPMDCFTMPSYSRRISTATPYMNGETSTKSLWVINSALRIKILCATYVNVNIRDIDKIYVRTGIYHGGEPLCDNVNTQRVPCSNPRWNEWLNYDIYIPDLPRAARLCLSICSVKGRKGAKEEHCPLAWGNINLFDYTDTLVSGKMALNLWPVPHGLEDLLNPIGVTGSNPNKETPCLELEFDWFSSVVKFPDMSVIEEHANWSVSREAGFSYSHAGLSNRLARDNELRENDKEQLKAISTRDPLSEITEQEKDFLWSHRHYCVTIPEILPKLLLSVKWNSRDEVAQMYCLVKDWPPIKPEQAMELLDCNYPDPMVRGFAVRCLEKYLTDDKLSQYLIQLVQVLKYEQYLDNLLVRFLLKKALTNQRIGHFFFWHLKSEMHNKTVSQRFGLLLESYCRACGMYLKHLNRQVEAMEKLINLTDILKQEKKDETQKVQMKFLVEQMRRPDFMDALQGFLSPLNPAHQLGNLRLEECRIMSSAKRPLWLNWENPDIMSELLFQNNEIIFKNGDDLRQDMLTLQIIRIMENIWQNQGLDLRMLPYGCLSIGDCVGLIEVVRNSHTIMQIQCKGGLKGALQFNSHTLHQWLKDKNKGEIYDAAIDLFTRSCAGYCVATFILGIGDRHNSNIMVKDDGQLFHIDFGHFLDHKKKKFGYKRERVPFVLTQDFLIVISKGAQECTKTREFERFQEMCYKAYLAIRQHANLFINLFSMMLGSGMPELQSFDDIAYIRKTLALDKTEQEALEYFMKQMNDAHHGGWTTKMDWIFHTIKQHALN
Sequence (P27986 whole entry partner): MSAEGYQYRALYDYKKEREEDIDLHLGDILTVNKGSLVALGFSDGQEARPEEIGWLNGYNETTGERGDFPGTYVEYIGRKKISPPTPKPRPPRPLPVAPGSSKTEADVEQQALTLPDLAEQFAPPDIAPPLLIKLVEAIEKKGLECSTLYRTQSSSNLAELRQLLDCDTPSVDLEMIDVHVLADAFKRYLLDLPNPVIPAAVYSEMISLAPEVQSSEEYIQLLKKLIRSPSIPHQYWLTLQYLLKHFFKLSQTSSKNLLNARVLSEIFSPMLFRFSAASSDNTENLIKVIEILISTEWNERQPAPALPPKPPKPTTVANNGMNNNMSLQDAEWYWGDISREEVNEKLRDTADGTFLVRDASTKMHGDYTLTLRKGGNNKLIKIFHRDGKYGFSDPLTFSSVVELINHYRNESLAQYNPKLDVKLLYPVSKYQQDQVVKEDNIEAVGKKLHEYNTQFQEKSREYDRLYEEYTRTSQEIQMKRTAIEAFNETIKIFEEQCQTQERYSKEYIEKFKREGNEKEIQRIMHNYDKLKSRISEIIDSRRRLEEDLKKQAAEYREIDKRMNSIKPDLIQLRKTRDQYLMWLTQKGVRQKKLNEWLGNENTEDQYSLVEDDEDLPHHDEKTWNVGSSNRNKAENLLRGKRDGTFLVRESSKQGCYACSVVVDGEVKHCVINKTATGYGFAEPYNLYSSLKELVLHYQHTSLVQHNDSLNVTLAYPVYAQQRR
assay.name: In vitro cell-free PI3Kα activity assay using PIP2 containing liposomes (wild type)
Type: biochemical
condition.info: logit-log plots, 100 μM ATP, PIP2 liposomes; read-out: IC50 against WT PI3Kα
observed.property: pIC50
Lab note: report pIC50 as minus log10 of the concentration in molar units, number only.

Query string: Item: O=C(Nc1cccc(O)c1)c1cccc(C(=O)Nc2cccc(O)c2)n1 [PI3K-024] Test system: wild type PI3Kα protein (Homo sapiens) Read-out: pIC50 Value: ?
Result string: 8.22
